Cited source for all entries: paper doi:10.1101/614586v1

# target.desc: human RAD54 (Homo sapiens, UniProt Q92698)
# experimental.protocol: biochemical
pIC50: −log10 of the molar value.
metric: pIC50

Req: Reported pIC50 for Cc1ccc(C)n1CCN1CCNCC1 [54h^o-1] : what is it?
Resp: < 4.22

###

# target.desc: H. sapiens SMARCAL1 (Homo sapiens, UniProt Q9NZC9)
# Sequence (Q9NZC9 2-954): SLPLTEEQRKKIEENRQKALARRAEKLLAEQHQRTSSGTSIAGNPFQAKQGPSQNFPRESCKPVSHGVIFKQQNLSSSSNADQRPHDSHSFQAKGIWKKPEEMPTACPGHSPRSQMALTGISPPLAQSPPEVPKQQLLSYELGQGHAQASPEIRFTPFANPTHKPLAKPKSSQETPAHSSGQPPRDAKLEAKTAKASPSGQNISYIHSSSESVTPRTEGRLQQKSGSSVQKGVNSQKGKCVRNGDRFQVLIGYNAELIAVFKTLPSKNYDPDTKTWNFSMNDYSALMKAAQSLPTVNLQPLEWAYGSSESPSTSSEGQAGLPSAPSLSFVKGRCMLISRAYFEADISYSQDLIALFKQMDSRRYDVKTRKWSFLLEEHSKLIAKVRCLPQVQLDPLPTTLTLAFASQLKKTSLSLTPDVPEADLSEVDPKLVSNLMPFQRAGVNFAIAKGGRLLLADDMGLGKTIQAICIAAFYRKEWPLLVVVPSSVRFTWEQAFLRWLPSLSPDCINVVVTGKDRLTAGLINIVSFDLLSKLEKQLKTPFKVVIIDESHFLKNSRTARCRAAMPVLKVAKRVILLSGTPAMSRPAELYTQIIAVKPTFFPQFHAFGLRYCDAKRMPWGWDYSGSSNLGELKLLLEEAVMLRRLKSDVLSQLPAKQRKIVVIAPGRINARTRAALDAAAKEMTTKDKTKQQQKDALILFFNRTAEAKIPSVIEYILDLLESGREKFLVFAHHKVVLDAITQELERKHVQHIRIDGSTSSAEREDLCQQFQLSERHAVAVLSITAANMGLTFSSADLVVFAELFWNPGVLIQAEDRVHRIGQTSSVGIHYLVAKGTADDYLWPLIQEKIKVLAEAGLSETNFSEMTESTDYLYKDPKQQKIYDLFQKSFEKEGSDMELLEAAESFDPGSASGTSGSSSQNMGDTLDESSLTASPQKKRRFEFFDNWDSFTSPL
metric: IC50 (µM)
Entry rule: numbers only, all in µM.

Req: Please provide the recorded IC50 for CN(C)CCCNCC(O)Cn1c2ccc(Cl)cc2c2cc(Cl)ccc21 (stereo not shown) [54i-1] , tested on H. sapiens SMARCAL1 (Homo sapiens, UniProt Q9NZC9).
Resp: 5.7

###

# target.desc: human RAD54 (Homo sapiens, UniProt Q92698)
# Sequence (Q92698 1-747): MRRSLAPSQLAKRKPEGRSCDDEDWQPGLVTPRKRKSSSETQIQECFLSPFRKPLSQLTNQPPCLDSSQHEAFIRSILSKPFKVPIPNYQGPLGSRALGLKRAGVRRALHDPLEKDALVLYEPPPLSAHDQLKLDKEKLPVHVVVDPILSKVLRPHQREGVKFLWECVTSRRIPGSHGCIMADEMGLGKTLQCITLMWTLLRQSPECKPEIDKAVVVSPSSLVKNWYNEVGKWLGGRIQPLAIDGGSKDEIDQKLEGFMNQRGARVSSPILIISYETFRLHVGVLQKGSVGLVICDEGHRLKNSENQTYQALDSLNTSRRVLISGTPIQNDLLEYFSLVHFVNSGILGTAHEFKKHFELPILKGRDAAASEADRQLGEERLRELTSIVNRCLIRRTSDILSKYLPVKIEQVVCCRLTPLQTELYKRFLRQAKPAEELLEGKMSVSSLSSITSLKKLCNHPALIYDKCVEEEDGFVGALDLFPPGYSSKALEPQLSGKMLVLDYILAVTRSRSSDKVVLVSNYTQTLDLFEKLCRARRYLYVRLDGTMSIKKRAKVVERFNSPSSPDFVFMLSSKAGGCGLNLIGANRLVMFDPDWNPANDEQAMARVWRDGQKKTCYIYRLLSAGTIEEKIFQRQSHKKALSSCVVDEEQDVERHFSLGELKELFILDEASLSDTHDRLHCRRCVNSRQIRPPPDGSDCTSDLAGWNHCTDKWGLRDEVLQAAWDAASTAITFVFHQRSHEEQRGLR
# experimental.protocol: malachite green phosphate ATPase assay
# Type: biochemical
metric: IC50

Req: Entry CC1(C)Cc2c(ccc3ccccc23)C(CCN2CCCCC2)=N1 [54i-2] , system human RAD54 (Homo sapiens, UniProt Q92698): what IC50 was measured?
Resp: 16 µM

Req: I'm curious: which IC50 was measured for CC1(C)c2cc(Br)ccc2N(CCc2nnn[nH]2)c2ccc(Br)cc21 tested on human RAD54 (Homo sapiens, UniProt Q92698)?
Resp: 7.65 µM

Req: Requested read-out IC50, target or system human RAD54 (Homo sapiens, UniProt Q92698), entry CN(C)CCCNCC(O)Cn1c2ccc(Cl)cc2c2cc(Cl)ccc21 (centres unmarked) [54i-1]
Resp: 5 µM

Req: Look up IC50 with human RAD54 (Homo sapiens, UniProt Q92698) for this compound: CC1(C)c2ccccc2N(CCc2nnn[nH]2)c2ccccc21
Resp: > 130 µM

Req: # value lookup — system human RAD54 (Homo sapiens, UniProt Q92698), readout IC50, item CC1(C)c2cc(Cl)ccc2N(CCc2nnn[nH]2)c2ccc(Cl)cc21
Resp: 3.07 µM
